# system_under_test: Ba/F3-EGFR-L858R T790M cells (Homo sapiens, UniProt P00533, T790M/L858R, cells depend on it)
# Sequence (P00533 whole entry T790M/L858R): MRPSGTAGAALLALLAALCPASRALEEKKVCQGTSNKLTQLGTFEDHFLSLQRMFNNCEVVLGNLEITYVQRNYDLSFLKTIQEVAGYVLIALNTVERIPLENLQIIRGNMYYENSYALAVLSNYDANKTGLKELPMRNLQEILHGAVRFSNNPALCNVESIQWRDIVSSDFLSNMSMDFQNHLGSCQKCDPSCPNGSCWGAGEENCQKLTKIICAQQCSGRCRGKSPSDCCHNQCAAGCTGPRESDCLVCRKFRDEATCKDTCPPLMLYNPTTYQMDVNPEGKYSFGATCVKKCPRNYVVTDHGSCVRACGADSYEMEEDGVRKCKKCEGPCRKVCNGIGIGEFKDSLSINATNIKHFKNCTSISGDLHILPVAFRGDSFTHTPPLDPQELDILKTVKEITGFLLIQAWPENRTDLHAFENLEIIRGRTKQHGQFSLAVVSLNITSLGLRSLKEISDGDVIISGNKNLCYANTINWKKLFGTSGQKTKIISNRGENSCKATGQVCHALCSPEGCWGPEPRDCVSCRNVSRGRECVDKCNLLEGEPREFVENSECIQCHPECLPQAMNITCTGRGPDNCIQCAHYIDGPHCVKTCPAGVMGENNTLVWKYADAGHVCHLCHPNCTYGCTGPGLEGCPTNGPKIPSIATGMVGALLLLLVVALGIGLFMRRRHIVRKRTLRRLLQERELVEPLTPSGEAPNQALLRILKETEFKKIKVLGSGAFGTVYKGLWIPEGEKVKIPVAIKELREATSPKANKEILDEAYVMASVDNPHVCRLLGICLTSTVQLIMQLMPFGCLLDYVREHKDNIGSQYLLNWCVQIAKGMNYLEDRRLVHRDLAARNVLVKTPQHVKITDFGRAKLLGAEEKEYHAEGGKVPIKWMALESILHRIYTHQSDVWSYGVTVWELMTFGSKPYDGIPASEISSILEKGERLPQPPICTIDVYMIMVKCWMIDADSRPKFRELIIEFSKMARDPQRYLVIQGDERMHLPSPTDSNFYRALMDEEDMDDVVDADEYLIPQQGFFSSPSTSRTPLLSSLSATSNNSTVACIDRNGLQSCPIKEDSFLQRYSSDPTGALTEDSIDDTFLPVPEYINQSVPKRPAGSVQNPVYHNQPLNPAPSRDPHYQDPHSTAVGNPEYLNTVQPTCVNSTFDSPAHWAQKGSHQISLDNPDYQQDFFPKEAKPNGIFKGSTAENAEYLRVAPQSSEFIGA
# protocol_details: Ba/F3 cell survival assay (Cell Titer-Glo), EGFR-L858R T790M
# Assay type: cell-based
# experimental_setup: 48 h, without IL-3, 10 ng/mL EGF; read-out: BA/F3 (L858R T790M) IC50
property: GI50 (µM)
Quick note: give the figure in µM, leave out the unit.

In [3]: df
Out[3]:
                                   compound  property  units_text  measured_result
0  C=CC(=O)N(C)CCOc1cnccc1-c1[nH]c2c(c1Nc1cccc(Cl)c1OC)C(=O)NCC2 [Example 5]      GI50          µM           0.0129

Note: attention shifts to another entry.
Lookup: Fill in the blank: the reported GI50 of C=CC(=O)N(C)CCOc1cnccc1-c1[nH]c2c(c1Nc1ccccc1OC(F)F)C(=O)NCC2 [Example 14] is ____.
Found: 0.397
